SYSTEM NAME: Sphingosine 1-phosphate receptor 3 (Homo sapiens) (UniProt Q99500)
Sequence (Q99500 whole entry, looked up): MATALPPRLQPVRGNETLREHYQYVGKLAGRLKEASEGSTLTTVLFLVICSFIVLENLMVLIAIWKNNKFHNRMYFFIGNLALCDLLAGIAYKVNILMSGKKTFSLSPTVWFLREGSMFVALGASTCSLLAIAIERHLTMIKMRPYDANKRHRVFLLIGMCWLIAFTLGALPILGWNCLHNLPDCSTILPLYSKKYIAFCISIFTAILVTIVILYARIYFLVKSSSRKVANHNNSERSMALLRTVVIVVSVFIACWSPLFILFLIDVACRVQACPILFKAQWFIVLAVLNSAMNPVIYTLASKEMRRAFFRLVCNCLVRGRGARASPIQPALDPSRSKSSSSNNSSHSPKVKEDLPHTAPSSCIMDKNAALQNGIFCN
ASSAY EXPLANATION: S1P3 receptor antagonists, primary screen, cell-based (AID 485);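 further: cells challenged with S1P at its EC80 of 0.8 µM; blue over green emission ratio from cleaved BLA substrate after 4 h stimulation; 0% = S1P-stimulated wells and 100% = unstimulated DMSO-only wells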
CONDITION LABEL: CHO S1P3 NFAT-BLA reporter, FRET fluorescence, antagonist mode; at 4.98 µM; stronger effect = higher value
Out of some 170,000 compounds screened, about 460 (0.27%) were called active. For the sample, actives were picked, then their nearest neighbours and some compounds at random.
RECORDED METRIC: inhibition (%)
Provide only the numeric value, understood in %.

Which value of inhibition has been reported for CCOc1cc(NS(=O)(=O)c2ccc(OC)cc2)c(OCC)cc1NC(C)=O in the records?
-10.8

Continue with COc1ccc(CN2C(=O)C(C)S/C2=N/N=C/c2ccco2)cc1 (stereo not given)
-5.66

Continue with OCCC1CN(Cc2ccccc2-c2ccco2)CCN1Cc1ccsc1 (stereo not given)
-6.06

Continue with Cc1cc(=O)oc2cc(OCCC[n+]3ccccc3)ccc12
0.67

Continue with Cc1cc(/C=N/NC(=O)c2cccnc2)c(C)n1CC(C)C
4.4

Continue with Cc1nc(CNS(=O)(=O)c2cc([N+](=O)[O-])ccc2C)cs1
10.3

Continue with CCOC(=O)CC1C(=O)NCCN1c1nc2c(C)cccn2c(=O)c1/C=C1\SC(=S)N(C(C)CC)C1=O (stereo not given)
29.7

Continue with COc1ccc(NC(=O)C2CCC(CNc3c(N4CCCCC4)c(=O)c3=O)CC2)c(OC)c1 (stereo not given)
-5.91

Continue with CCOC(=O)C1=C(C)NC(=O)NC1c1ccccc1 (stereo not given)
-9.13

Continue with COCCCNC(=O)Cn1c(=O)n(Cc2ccccc2Cl)c(=O)c2cc(OC)c(OC)cc21
-15.6

Continue with CC1CCN(C(=S)c2cccc([N+](=O)[O-])c2)CC1
-0.25

Continue with C/C(CC(=O)Nc1cccc(C(F)(F)F)c1)=N\NC(=O)C(=O)NCC(C)C
-5.61

Continue with O=C(Nc1ccc(N2CCOCC2)nc1)c1c(F)cccc1F
6.79

Continue with CCOC(=O)C1=C(C)N=C2c3ccccc3C(=O)C2C1c1ccc(Br)cc1 (stereo not given)
60

Continue with CCOc1cc(N2CCOCC2)c(OCC)cc1NC(=O)c1ccc(C)s1
2.86

Continue with Cc1nc2ccccn2c1C(=O)NN=C1CCN(C)CC1
5.25

Continue with CC(C)Oc1ccc(CCC(=O)NNC(=S)NCc2ccccc2)cc1
11.1

Continue with CCOc1ccc2sc(NS(=O)(=O)c3ccc(N)cc3)nc2c1
-8.22

Continue with Cn1c(C(=O)O)ccc1S(=O)(=O)N(Cc1ccccc1)Cc1ccccc1
3.65

Continue with CN(CC(=O)Nc1cccc(F)c1)CC(=O)Nc1cccc([N+](=O)[O-])c1
-5.5

Continue with CN(C)/C=C(/C(=O)c1ccc(Cl)c(Cl)c1)c1nnnn1-c1ccccc1
1.6

Continue with OC1CCCN(c2ncnc3c2nnn3Cc2c(F)cccc2Cl)C1 (stereo not given)
-7.85

Continue with Cc1ccc(NC(=O)C/C(N)=N/O)cc1Cl
-2.94

Continue with CCOC(=O)CC1C(=O)NCCN1C(=O)COc1ccc(Br)cc1C (stereo not given)
-25.1

Continue with O=C(NCC(c1cccs1)N1CCOCC1)c1cc(-c2ccccn2)nc2ccccc12 (stereo not given)
-2.5

Continue with CCOC(=O)c1oc2c(CN3CCN(CCO)CC3)c(O)c(CC)cc2c(=O)c1-c1nc2ccccc2s1
-10.5

Continue with O=C(c1ccc(F)cc1)n1cc(C(=S)N2CCOCC2)c2ccccc21
16.1

Continue with COc1ccc(CNC(=O)CCC(=O)Nc2nnc(C(C)C)s2)cc1
-0.16

Continue with CCN(CCn1cccn1)Cc1cn[nH]c1-c1ccc(OC)cc1F
-12.8

Continue with CCOc1ccc(/C=C2\SC(=S)N(NC(=O)c3ccncc3)C2=O)cc1OC
6.85

Continue with COc1cc2[nH]c(=O)n(Cc3ccc(C(=O)NC4CCN(Cc5ccccc5)CC4)cc3)c(=O)c2cc1OC
-15.1

Continue with COc1ccccc1C1CCN(C(=S)Nc2ccc(Br)cc2)CC1
7.17

Continue with COc1ccccc1NC(=O)C1=C(C)NC(=O)NC1c1ccc(C)s1 (stereo not given)
1.95

Continue with Nc1nc(SC23CC4CC(CC(C4)C2)C3)ns1
-0.08

Continue with CN1C=CC=C/C1=C1\SC(=S)N(Cc2ccccc2)C1=O
-8.73

Continue with C=CCN1CC(C)/C(=N\O)CC1C (stereo not given)
-3.95

Continue with Cc1cccc(-n2ncc3c(N4CCc5ccccc54)ncnc32)c1
84.3

Continue with COc1cccc(CC2(CO)CCCN(Cc3nc(-c4cccs4)oc3C)C2)c1 (stereo not given)
-7.51

Continue with CCC(=O)NC(=Nc1nc2ccccc2s1)NC(=O)CC
84.7

Continue with C=CCOC(=O)C1=C(C)N=C2SCCC(=O)N2C1/C=C/c1ccccc1OC (stereo not given)
-1.87

Continue with COc1ccc(-n2ncc3c(N4CCc5ccccc54)ncnc32)cc1
13.4

Continue with COc1ccccc1-n1c(SCC(=O)O)nc2sc3c(c2c1=O)CCC3
-7.86

Continue with O=C(O)CSCc1nc2ccccc2s1
-27.1

Continue with COc1ccc(C2=NN(c3nc4ccccc4s3)C(=O)C2)cc1
-9.89

Continue with CN1C(=O)/C(=N/OC(=O)c2ccccc2Br)c2ccccc21
-12.3

Taken from PubChem BioAssay AID485.
